system: Mycobacterium tuberculosis; assay: Antimycobacterial activity against multi-drug resistant Mycobacterium tuberculosis Praha 1 after 14 days by microplate dilution method; type: functional; settings: Praha 1, 336 h

smiles.string | value.units | relation.sign | MIC
CCCCCCCCNc1cncc(C(=O)NCc2ccccc2)n1 | µM | = | 16
CCCCCCNc1cncc(C(=O)NCc2ccccc2)n1 | µM | = | 16
CCCCCCCNc1cncc(C(=O)NCc2ccccc2)n1 | µM | = | 16
CCCCCCCCNc1nccnc1C(=O)NCc1ccccc1 | µM | > | 1000
CCCCCNc1nccnc1C(=O)NCc1ccccc1 | µM | = | 1000
CCCCCCCNc1cnc(C(=O)NCc2ccccc2)cn1 | µM | = | 4
CCCCNc1cncc(C(=O)NCc2ccccc2)n1 | µM | = | 62.5
CCCCCCNc1cnc(C(=O)NCc2ccccc2)cn1 | µM | = | 4
CCCCCCCNc1nccnc1C(=O)NCc1ccccc1 | µM | = | 1000
CCCCCCNc1nccnc1C(=O)NCc1ccccc1 | µM | = | 1000
CCCCCCCCNc1cnc(C(=O)NCc2ccccc2)cn1 | µM | = | 4
CCCCCNc1cncc(C(=O)NCc2ccccc2)n1 | µM | = | 62.5
NNC(=O)c1ccncc1 | µM | = | 16

---

test system: Mycobacterium tuberculosis; test: Antimycobacterial activity against multi-drug resistant Mycobacterium tuberculosis Praha 1 after 14 days by microplate dilution method; format: functional; settings: Praha 1, 336 h
Overview of reported MIC across a group of molecules:

smiles.string | assayed.target | value.units | MIC
CCCCCNc1cnc(C(=O)NCc2ccccc2)cn1 | Mycobacterium tuberculosis | µM | 16
CCCCNc1cnc(C(=O)NCc2ccccc2)cn1 | Mycobacterium tuberculosis | µM | 125
CCCCNc1nccnc1C(=O)NCc1ccccc1 | Mycobacterium tuberculosis | µM | 125

---

test system: Mycobacterium tuberculosis; experiment: Antimycobacterial activity against multi-drug resistant Mycobacterium tuberculosis 234/2005 after 21 days by microplate dilution method; format: functional; details: 234/2005, 504 h
Overview of reported MIC across a group of compounds:
property.name: MIC (µM)

smiles.string | assayed.target | relation.sign | reported
CCCCCCCCNc1cnc(C(=O)NCc2ccccc2)cn1 | Mycobacterium tuberculosis | = | 8
CCCCCCCCNc1nccnc1C(=O)NCc1ccccc1 | Mycobacterium tuberculosis | > | 1000
NNC(=O)c1ccncc1 | Mycobacterium tuberculosis | = | 16
CCCCNc1cnc(C(=O)NCc2ccccc2)cn1 | Mycobacterium tuberculosis | = | 250
CCCCCCCCNc1cncc(C(=O)NCc2ccccc2)n1 | Mycobacterium tuberculosis | = | 16
CCCCCCCNc1cnc(C(=O)NCc2ccccc2)cn1 | Mycobacterium tuberculosis | = | 4
CCCCNc1cncc(C(=O)NCc2ccccc2)n1 | Mycobacterium tuberculosis | = | 62.5
CCCCCCNc1cnc(C(=O)NCc2ccccc2)cn1 | Mycobacterium tuberculosis | = | 8
CCCCCNc1nccnc1C(=O)NCc1ccccc1 | Mycobacterium tuberculosis | > | 1000
CCCCCCCNc1cncc(C(=O)NCc2ccccc2)n1 | Mycobacterium tuberculosis | = | 16
CCCCNc1nccnc1C(=O)NCc1ccccc1 | Mycobacterium tuberculosis | = | 250
CCCCCCCNc1nccnc1C(=O)NCc1ccccc1 | Mycobacterium tuberculosis | > | 1000
CCCCCNc1cncc(C(=O)NCc2ccccc2)n1 | Mycobacterium tuberculosis | = | 62.5
